Tested on: duck salad (Heteranthera limosa)
assayText: Test C flooded paddy test
Type: in vivo
conditionsUsed: flooded paddy test, Rate 125 g/ha; scale 0 to 100 (0 no effect, 100 complete control)
Listed here: items and their measured Plant response rating, Ducksalad.
Output spec: single numeric token, no unit.

Here's what some known entries look like.
compound	reportedValue
COc1cc(N2CCC(n3ccc(C(C)(C)C)n3)C2=O)cc2ccccc12 (stereo not drawn)	0
CC(C)c1ccn(C2SCN(c3cccc(C(F)(F)F)c3)C2=O)n1 (stereo not drawn)	80
CC1(c2ccn(C3SCN(c4cccc(OC(F)(F)F)c4)C3=O)n2)CC1 (stereo not drawn)	20
CCCC(C)c1ccn(C2CCN(c3ccc(Cl)c(OC)c3)C2=O)n1 (stereo not drawn)	0
Cc1ccc(N2CCC(n3ccc(C(C)(C)C)n3)C2=O)cc1OCCCl (stereo not drawn)	0

Req: Could you share which Plant response rating, Ducksalad value was measured for CCCCC(CCCC)c1ccn(C2SCN(c3cccc(OC(F)(F)F)c3)C2=O)n1 (stereo not drawn) ?
Resp: 0

Req: Could you tell me which Plant response rating, Ducksalad is on file for CCC(CC)c1ccn(C2OCN(c3cccc(OC(F)F)c3)C2=O)n1 (stereo not drawn) ?
Resp: 100

Req: Given CCC(CC)c1ccn(C2CCN(c3cccc(OC(C)C)c3)C2=O)n1 (stereo not drawn) , state its recorded Plant response rating, Ducksalad.
Resp: 90

Req: Quick one: Plant response rating, Ducksalad of Cc1ccc(N2CCC(n3ccc(C(C)(C)C)n3)C2=O)cc1OCCI (stereo not drawn) ?
Resp: 0

====

Test system: rice (Oryza saliva)
assayText: Test B preemergence
Assay type: in vivo
conditionsUsed: Preemergence, Rate 500 g/ha; scale 0 to 100, 0 no effect, 100 complete control
# key: entry, value: Plant response rating, Rice
# output: bare number, no unit

Example entries begin here.
molecule	reportedValue
O=C1C(n2ccc(C3CCCCC3)n2)OCN1c1cccc(C(F)(F)F)c1 (stereo not drawn) [Compound 51]	0
CCC(C)c1ccn(C2OCN(c3cccc(OC(F)F)c3)C2=O)n1 (stereo not drawn) [Compound 134]	100
CCCCC(CCCC)c1ccn(C2SCN(c3cccc(OC(F)(F)F)c3)C2=O)n1 (stereo not drawn) [Compound 115]	0
CCC(CC)c1ccn(C2SCN(c3cccc(C(F)(F)F)c3)C2=O)n1 (stereo not drawn) [Compound 25]	0
Cc1cc(N2CCC(n3ccc(C(C)(C)C)n3)C2=O)ccc1Cl (stereo not drawn) [Compound 53]	0
CC(C)(C)c1ccn(C2CCN(c3cccc(OC(F)(F)F)c3)C2=O)n1 (stereo not drawn) [Compound 49]	20

Req: Request the reported Plant response rating, Rice associated with O=C1C(n2ccc(C3CC3)n2)OCN1c1cccc(C(F)(F)F)c1 (stereo not drawn) [Compound 28]
Resp: 40

Req: # query: Plant response rating, Rice of entry CCC(CC)c1ccn(C2CCN(c3ccc(Cl)c(OC)c3)C2=O)n1 (stereo not drawn) [Compound 118]
Resp: 0

Req: Given the molecule Cc1ccc(N2CCC(n3ccc(C(C)(C)C)n3)C2=O)cc1Cl (stereo not drawn) [Compound 41] , what is its reported Plant response rating, Rice?
Resp: 0

====

Tested on: woolly cupgrass (Eriochloa villosa)
assayText: Test C preemergence
Assay type: in vivo
conditionsUsed: preemergence, Rate 62 g/ha, scale 0 to 100
The entries below are paired with their reported Plant response rating, Cupgrass, Woolly.

compound	tgt	reportedValue
CCC(CC)c1ccn(C2CCN(c3cccc(OC(C)C)c3)C2=O)n1 (centres unmarked)	woolly cupgrass (Eriochloa villosa)	60
CCC(C)c1ccn(C2CCN(c3ccc(F)c(C(F)(F)F)c3)C2=O)n1 (centres unmarked)	woolly cupgrass (Eriochloa villosa)	20
CCCOc1cc(N2CCC(n3ccc(C(C)(C)C)n3)C2=O)ccc1C (centres unmarked)	woolly cupgrass (Eriochloa villosa)	50
CCCC(C)c1ccn(C2OCN(c3cccc(OC(F)F)c3)C2=O)n1 (centres unmarked)	woolly cupgrass (Eriochloa villosa)	90
CCC(C)c1ccn(C2OCN(c3cccc(OC(F)F)c3)C2=O)n1 (centres unmarked)	woolly cupgrass (Eriochloa villosa)	100
CCC(CC)c1ccn(C2CCN(c3ccc(Br)c(OC)c3)C2=O)n1 (centres unmarked)	woolly cupgrass (Eriochloa villosa)	90
CCCC(C)c1ccn(C2OCN(c3cccc(C(F)(F)F)c3)C2=O)n1 (centres unmarked)	woolly cupgrass (Eriochloa villosa)	0
CCC(C)c1ccn(C2CCN(c3cccc(OC)c3)C2=O)n1 (centres unmarked)	woolly cupgrass (Eriochloa villosa)	50

Req: Quick one: Plant response rating, Cupgrass, Woolly of CC(C)OC(=O)c1cccc(N2CCC(n3ccc(C(C)(C)C)n3)C2=O)c1 (centres unmarked) ?
Resp: 30

Req: Recorded Plant response rating, Cupgrass, Woolly for CCOc1cccc(N2CCC(n3ccc(C(C)C)n3)C2=O)c1 (centres unmarked) , please?
Resp: 100

Req: Any idea what its Plant response rating, Cupgrass, Woolly is? The compound is CCOc1cccc(N2CCC(n3ccc(C(C)(C)C)n3)C2=O)c1 (centres unmarked)
Resp: 100
